What pIC50 was measured for each of the following?
- measurement target: human DGKζ (Homo sapiens, UniProt Q13574)
- Construct: TVMV protease cleavage site (C); Hexa-His (C); made in house; host or cells: Sf9 insect cells (baculovirus, Bac-to-Bac)
- Sequence (Q13574 with tags, fused parts or gaps isoform Q13574-4): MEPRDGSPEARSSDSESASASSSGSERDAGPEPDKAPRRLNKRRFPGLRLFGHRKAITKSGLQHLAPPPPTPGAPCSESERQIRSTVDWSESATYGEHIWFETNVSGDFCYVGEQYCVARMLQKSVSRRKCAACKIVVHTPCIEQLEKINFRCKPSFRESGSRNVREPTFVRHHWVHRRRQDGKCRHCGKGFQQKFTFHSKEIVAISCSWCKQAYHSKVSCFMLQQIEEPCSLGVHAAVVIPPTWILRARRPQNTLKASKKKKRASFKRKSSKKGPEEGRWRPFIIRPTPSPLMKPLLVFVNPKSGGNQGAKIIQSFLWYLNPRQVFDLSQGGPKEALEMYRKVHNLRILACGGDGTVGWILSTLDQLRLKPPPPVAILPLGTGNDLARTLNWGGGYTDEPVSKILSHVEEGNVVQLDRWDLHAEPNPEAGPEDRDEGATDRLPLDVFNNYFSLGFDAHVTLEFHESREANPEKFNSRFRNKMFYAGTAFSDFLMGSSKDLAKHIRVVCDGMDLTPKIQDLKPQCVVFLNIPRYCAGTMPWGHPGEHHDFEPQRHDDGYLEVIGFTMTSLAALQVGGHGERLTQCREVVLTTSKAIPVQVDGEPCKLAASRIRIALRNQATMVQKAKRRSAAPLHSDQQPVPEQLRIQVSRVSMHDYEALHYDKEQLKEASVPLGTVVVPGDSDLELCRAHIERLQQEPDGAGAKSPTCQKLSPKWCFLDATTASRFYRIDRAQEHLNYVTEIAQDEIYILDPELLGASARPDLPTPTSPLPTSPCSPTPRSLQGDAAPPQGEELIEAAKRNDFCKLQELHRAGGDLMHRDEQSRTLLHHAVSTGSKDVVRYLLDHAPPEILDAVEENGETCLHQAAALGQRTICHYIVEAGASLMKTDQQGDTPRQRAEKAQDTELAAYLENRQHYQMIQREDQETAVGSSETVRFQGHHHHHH
- test protocol: DGKζ LIPGLO assay (extruded liposome substrate), in vitro DGK inhibition
- Type: biochemical
- experimental conditions: liposome (LIPGLO) assay; read-out: DGKz LIPGLO IC50
Give bare numbers, as −log10 of the molar value.

See these solved cases before continuing.
{"molecule": "COc1cc(F)ccc1C(N1C[C@H](C)N(c2cc(=O)n(C)c3ccc(C#N)nc23)C[C@H]1C)C(C)(C)C (single isomer, unassigned) [Example 185]", "reported": 6.68}
{"molecule": "Cn1c(=O)c(C#N)c(N2CCN(C(c3ccc(F)cc3)c3ccc(F)cc3)C(C(=O)O)C2)c2nc(C#N)ccc21 (single isomer, unassigned) [Example 53]", "reported": 4.03}
{"molecule": "CC(c1cc(C2CC2)on1)N1C[C@H](C)N(c2cc(=O)n(C)c3ccc(C#N)nc23)C[C@H]1C (single isomer, unassigned) [Example 1282]", "reported": 5.68}
{"molecule": "Cc1ccc(C(c2cccc(F)c2)N2C[C@H](C)N(c3cc(=O)n(C)c4ccc(C#N)nc34)C[C@H]2C)cn1 (single isomer, unassigned) [Example 390]", "reported": 5.13}
{"molecule": "COc1cc(F)c(C(C)N2C[C@H](C)N(c3cc(=O)n(C)c4ccc(C#N)nc34)C[C@H]2C)cc1F (stereo partly drawn)", "reported": 7.52}
{"molecule": "[2H]C([2H])(c1c(F)cc(F)cc1F)N1C[C@H](C)N(c2cc(=O)n(C)c3ccc(C#N)nc23)C[C@H]1C", "reported": 5.70}
{"molecule": "CC(C)Oc1ccc(C(c2cccc(F)c2)N2C[C@H](C)N(c3cc(=O)n(C)c4ccc(C#N)nc34)C[C@H]2C)nc1 (stereo partly drawn) [Example 690]", "reported": 6.41}
{"molecule": "C[C@@H]1CN(c2cc(=O)n(C)c3ccc(C#N)nc23)[C@@H](C)CN1Cc1cccc2c1OCCN2", "reported": 5.05}
{"molecule": "C[C@@H]1CN(c2cc(=O)n(C)c3ccc(C#N)nc23)[C@@H](C)CN1C(c1ccc(F)cc1)C1CCS(=O)(=O)CC1 (single isomer, unassigned) [Example 1301]", "reported": 5.44}
{"molecule": "CC[C@H]1CN(Cc2ccc3c(c2)OC(F)(F)O3)[C@H](COC)CN1c1cc(=O)n(C)c2ccc(C#N)nc12", "reported": 6.46}

Value sought for every listed molecule: pIC50.
1. Cc1cc(CN2C[C@H](C)N(c3cc(=O)n(C)c4ccc(C#N)nc34)C[C@H]2C)no1
2. C[C@@H]1CN(c2cc(=O)n(C)c3ccc(C#N)nc23)[C@@H](C)CN1C(COC(F)F)c1ccc(F)cc1 (single isomer, unassigned) [Example 1188]
3. CC(c1cccc(OC(F)(F)F)c1F)N1C[C@H](C)N(c2cc(=O)n(C)c3ccc(C#N)nc23)C[C@H]1C (single isomer, unassigned) [Example 1208]
4. COC[C@@H]1CN(c2cc(=O)n(C)c3ccc(C#N)nc23)[C@@H](C)CN1C(c1ccc(F)cc1)c1nc(C2CC2)no1 (single isomer, unassigned) [Example 1394]
5. CCC(c1ccc(F)c(F)c1)N1C[C@H](C)N(c2cc(=O)n(C)c3ccc(C#N)nc23)C[C@H]1C (single isomer, unassigned) [Example 344]
6. C[C@@H]1CN(c2c(C#N)c(=O)n(C)c3ccc(C#N)nc23)[C@@H](C)CN1C(c1ccc(F)cc1)c1ccc(F)cc1

Out:
1. 4.85
2. 6.11
3. 7.43
4. 7.43
5. 6.00
6. 6.02

// for each molecule in input: emit pIC50
1. Cc1ccc(C(c2cncc(F)c2)N2C[C@H](C)N(c3cc(=O)n(C)c4ccc(C#N)nc34)C[C@H]2C)cc1 (single isomer, unassigned) [Example 416]
2. C[C@@H]1CN(c2cc(=O)n(C)c3ccc(C#N)nc23)[C@@H](C)CN1C(c1c(F)cc(O)cc1F)C(F)(F)F (single isomer, unassigned) [Example 627]
3. COc1cccc(C(c2ccc(F)cc2)N2C[C@H](C)N(c3cc(=O)n(C)c4ccc(C#N)nc34)C[C@H]2C)c1 (single isomer, unassigned) [Example 661]
4. C[C@@H]1CN(c2cc(=O)n(C)c3ccc(C#N)nc23)[C@@H](C)CN1C(c1ccc(Cl)cc1)c1ccc(F)c2c1OC(C)(C)C2 (single isomer, unassigned) [Example 459]
5. C[C@@H]1CN(c2cc(=O)n(C)c3ccc(C#N)nc23)[C@@H](C)CN1Cc1cccc(OC(F)(F)F)c1

Out:
1. 4.85
2. 5.23
3. 5.77
4. 5.96
5. 5.25

Here are 3 molecules. What values of pIC50 were reported for them?
1. COc1cc(F)c(C(C)N2C[C@H](C)N(c3cc(=O)n(C)c4ccc(C#N)nc34)C[C@H]2C)cc1OC (single isomer, unassigned) [Example 1247]
2. CC[C@@H]1CN(c2cc(=O)n(C)c3ccc(C#N)nc23)[C@@H](CC)CN1Cc1ccc(OC(F)(F)F)cc1
3. CC[C@@H]1CN(c2cc(=O)n(C)c3ccc(C#N)nc23)[C@@H](C)CN1C(c1ccc(F)cc1)c1ccnc(C)n1 (single isomer, unassigned) [Example 418]

Out:
5.13
6.26
6.89

====

- measurement target: human DGKα (Homo sapiens, UniProt P23743)
- Construct: TVMV protease cleavage site (C); Hexa-His (C); made in house; host or cells: Sf9 insect cells (baculovirus, Bac-to-Bac)
- Sequence (P23743 with tags, fused parts or gaps): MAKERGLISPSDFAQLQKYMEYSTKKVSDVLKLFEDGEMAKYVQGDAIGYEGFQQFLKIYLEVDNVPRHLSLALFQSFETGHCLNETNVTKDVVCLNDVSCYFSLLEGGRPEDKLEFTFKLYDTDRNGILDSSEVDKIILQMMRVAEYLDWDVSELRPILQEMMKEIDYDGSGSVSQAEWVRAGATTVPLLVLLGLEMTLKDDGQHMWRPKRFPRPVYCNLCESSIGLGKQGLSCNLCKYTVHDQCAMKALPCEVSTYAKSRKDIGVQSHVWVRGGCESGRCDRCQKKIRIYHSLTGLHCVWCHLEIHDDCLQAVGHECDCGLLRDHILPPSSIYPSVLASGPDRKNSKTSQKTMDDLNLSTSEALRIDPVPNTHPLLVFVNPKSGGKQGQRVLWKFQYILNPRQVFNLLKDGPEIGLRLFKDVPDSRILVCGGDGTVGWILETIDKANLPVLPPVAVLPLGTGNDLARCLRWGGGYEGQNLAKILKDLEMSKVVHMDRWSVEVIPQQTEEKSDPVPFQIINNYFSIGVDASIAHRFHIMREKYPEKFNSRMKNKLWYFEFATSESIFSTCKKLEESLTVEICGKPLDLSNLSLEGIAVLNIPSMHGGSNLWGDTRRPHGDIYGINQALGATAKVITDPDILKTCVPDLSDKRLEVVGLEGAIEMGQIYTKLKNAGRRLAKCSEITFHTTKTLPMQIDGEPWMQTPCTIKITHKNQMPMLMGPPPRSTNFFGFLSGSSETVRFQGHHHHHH
- test protocol: DGKα LIPGLO assay (extruded liposome substrate), in vitro DGK inhibition
- Type: biochemical
- experimental conditions: liposome (LIPGLO) assay; read-out: DGKa LIPGLO IC50
Give measured pIC50 for each item. Keep answers brief.
Answers are plain numbers, as −log10 of the molar value.

Each molecule below has a reported value. Please supply its pIC50.
1. Cc1oc(-c2cccc(F)c2)nc1CN1C[C@H](C)N(c2cc(=O)n(C)c3ccc(C#N)nc23)C[C@H]1C [Example 1430]
2. CC(c1ccc(OC(F)(F)F)cc1)N1C[C@@H](C)N(c2cc(=O)n(C)c3ccc(C#N)nc23)C[C@@H]1CO (single isomer, unassigned) [Example 1180]
3. CC[C@@H]1CN(c2cc(=O)n(C)c3ccc(C#N)nc23)CCN1C(c1ccc(F)cc1)c1ccc(F)cc1
4. Cn1c(=O)c(C#N)c(N2CCN(C(c3ccc(F)cc3)c3ccc(F)cc3)C(C(N)=O)C2)c2nc(C#N)ccc21 (single isomer, unassigned) [Example 58]
5. C[C@@H]1CN(c2cc(=O)n(C)c3ccc(C#N)nc23)[C@@H](C)CN1C(c1ccc(F)cc1)c1nccs1 (single isomer, unassigned) [Example 712]
6. C[C@@H]1CN(c2cc(=O)n(C)c3ccc(C#N)nc23)[C@@H](C)CN1C(c1ccccc1)c1ccc(F)cc1 (mixture of isomers)

Out:
1. 4.68
2. 5.12
3. 5.72
4. 5.14
5. 6.49
6. 6.06

====

- measurement target: human DGKζ (Homo sapiens, UniProt Q13574)
- Construct: TVMV protease cleavage site (C); Hexa-His (C); made in house; host or cells: Sf9 insect cells (baculovirus, Bac-to-Bac)
- test protocol: DGKζ LIPGLO assay (extruded liposome substrate), in vitro DGK inhibition
- Format: biochemical
- experimental conditions: liposome (LIPGLO) assay; read-out: DGKz LIPGLO IC50
For each entry below, report its IC50 value.
Answers are plain numbers, in µM.

Take a look at these entries with their results.
{"compound": "CC(=O)N1CCOc2c(CN3C[C@H](C)N(c4cc(=O)n(C)c5ccc(C#N)nc45)C[C@H]3C)cccc21", "unit label": "µM", "IC50": 4.3}
{"compound": "CCC(c1ccc(OCCC2CC2)cc1)N1C[C@H](C)N(c2cc(=O)n(C)c3ccc(C#N)nc23)C[C@H]1C (single isomer, unassigned) [Example 1446]", "unit label": "µM", "IC50": 0.23}

--- query ---
Form: compound = C[C@@H]1CN(c2cc(=O)n(C)c3ccc(C#N)nc23)[C@@H](C)CN1C(c1c(F)cc(O)cc1F)C(F)(F)F (single isomer, unassigned) [Example 592] ; IC50 = 19

====

- measurement target: human DGKα (Homo sapiens, UniProt P23743)
- Construct: TVMV protease cleavage site (C); Hexa-His (C); made in house; host or cells: Sf9 insect cells (baculovirus, Bac-to-Bac)
- test protocol: DGKα LIPGLO assay (extruded liposome substrate), in vitro DGK inhibition
- Assay type: biochemical
- experimental conditions: liposome (LIPGLO) assay; read-out: DGKa LIPGLO IC50
Assignment: determine reported pIC50 for the given molecules.
Give bare numbers, as −log10 of the molar value.

{"molecule": "C[C@@H]1CN(c2cc(=O)n(C)c3ccc(C#N)nc23)[C@@H](C)CN1C(CF)c1ccc(F)cc1 (mixture of isomers)", "pIC50": 5.59}
{"molecule": "Cn1c(=O)cc(N2CCN(C(c3ccc(F)cc3)c3ccc(F)cc3)CC2C(N)=O)c2nc(C#N)ccc21 (single isomer, unassigned) [Example 142]", "pIC50": 4.40}
{"molecule": "C[C@@H]1CN(c2cc(=O)n(C)c3ccc(C#N)nc23)[C@@H](C)CN1C(c1ccc(F)cn1)c1ccc(F)cn1", "pIC50": 7.54}

Please supply pIC50 for each of the following items, keeping them in order.
1. CC[C@@H]1CN(c2cc(=O)n(C)c3ccc(C#N)nc23)[C@@H](C)CN1C(c1ccc(F)cc1)c1nc(C2CC2)cs1 (single isomer, unassigned) [Example 1339]
2. CC[C@H]1CN(C(C)c2ccc(OC(F)F)cc2)[C@H](C)CN1c1cc(=O)n(C)c2ccc(C#N)nc12 (single isomer, unassigned) [Example 1379]

Out:
[6.57, 8.06]

For record CC(=O)N1CC(c2noc(C(c3ccc(F)cc3)N3C[C@H](C)N(c4cc(=O)n(C)c5ccc(C#N)nc45)C[C@H]3C)n2)C1 (single isomer, unassigned) [Example 1296] the listed pIC50 is 5.62

Ref: patent US10669272B2
